Below are IC50 values measured for SSTR2 (Rattus norvegicus).
Positions of bridges follow the written chain, without caps; N, C: chain ends. Non-standard residues stand in square brackets, D forms with d. Residues, ends and D or L forms follow the SMILES beside them. Phe(4-NO2) = N[C@@H](Cc1ccc([N+](=O)[O-])cc1)C(=O)O; dPhe(4-NO2) = N[C@H](Cc1ccc([N+](=O)[O-])cc1)C(=O)O; 2Nal = N[C@@H](Cc1ccc2ccccc2c1)C(=O)O; NMeA = CN[C@@H](C)C(=O)O; Orn = NCCC[C@H](N)C(=O)O
Use nM as the unit, but write only the number.

NCCCC[C@@H]1NC(=O)[C@@H](Cc2c[nH]c3ccccc23)NC(=O)[C@H](Cc2ccc(O)cc2)NC(=O)[C@H](NC(=O)[C@@H](N)Cc2ccc([N+](=O)[O-])cc2)CSSC[C@@H](C(=O)N[C@@H](Cc2ccc3ccccc3c2)C(N)=O)NC(=O)[C@H](CO)NC1=O (H-[Phe(4-NO2)][dC]Y[dW]KSC[2Nal]-NH2; disulfide 2-7)    10
CC(C)[C@@H]1NC(=O)[C@H](CCCCN)NC(=O)[C@@H](Cc2c[nH]c3ccccc23)NC(=O)[C@H](Cc2ccc(O)cc2)NC(=O)[C@H](NC(=O)[C@@H](N)Cc2ccc([N+](=O)[O-])cc2)CSSC[C@@H](C(=O)N(C)[C@@H](C)C(N)=O)NC1=O (H-[Phe(4-NO2)][dC]Y[dW]KVC[NMeA]-NH2; disulfide 2-7)    55
CC(C)[C@@H]1NC(=O)[C@H](CCCCN)NC(=O)[C@@H](Cc2c[nH]c3ccccc23)NC(=O)[C@H](Cc2ccc(O)cc2)NC(=O)[C@H](NC(=O)[C@H](N)Cc2ccc([N+](=O)[O-])cc2)CSSC[C@@H](C(=O)N[C@@H](Cc2ccc(O)cc2)C(N)=O)NC1=O (H-[dPhe(4-NO2)][dC]Y[dW]KVCY-NH2; disulfide 2-7)    39

Provide the documented IC50 with SSTR2 (Rattus norvegicus) as the system for C[C@@H](O)[C@@H]1NC(=O)[C@H](CCCCN)NC(=O)[C@@H](Cc2c[nH]c3ccccc23)NC(=O)[C@H](Cc2ccc(O)cc2)NC(=O)[C@H](NC(=O)[C@@H](N)Cc2ccc(I)cc2)CSSC[C@@H](C(=O)N[C@@H](Cc2ccc(O)cc2)C(N)=O)NC1=O 0.6

Provide the documented IC50 with SSTR2 (Rattus norvegicus) as the system for CC(=O)N[C@@H](Cc1ccc(I)cc1)C(=O)N[C@@H]1CSSC[C@@H](C(=O)N[C@H](Cc2ccc(O)cc2)C(N)=O)NC(=O)[C@H]([C@@H](C)O)NC(=O)[C@H](CCCCN)NC(=O)[C@@H](Cc2c[nH]c3ccccc23)NC(=O)[C@H](Cc2ccc(O)cc2)NC1=O 6

Provide the documented IC50 with SSTR2 (Rattus norvegicus) as the system for CC(C)[C@@H]1NC(=O)[C@H](CCCN)NC(=O)[C@@H](Cc2c[nH]c3ccccc23)NC(=O)[C@H](Cc2ccc(O)cc2)NC(=O)[C@H](NC(=O)[C@@H](N)Cc2ccc([N+](=O)[O-])cc2)CSSC[C@@H](C(=O)N[C@@H](Cc2ccc(O)cc2)C(N)=O)NC1=O (H-[Phe(4-NO2)][dC]Y[dW][Orn]VCY-NH2; disulfide 2-7) 113
